Target: recombinant human ASK1 protein (Homo sapiens (Human))
Assay: ASK1 kinase activity inhibition assay (radiometric 33P incorporation into MBP)
Assay type: biochemical
Details: Table 3; 20 μM MBP, 10 μM 33P-ATP
Items are presented alongside their recorded pIC50.
Remember the convention: pIC50 equals -log10 of concentration in molar.

Given `Cc1ccc(-c2ccc3c(c2)C(=O)N(c2cccc(-c4nncn4C(C)C)n2)C3)cc1C(=O)O` , respond with its pIC50.
8.25

###

Molecular target: human OATP1B1 transporter (Homo sapiens (Human), UniProt Q9Y6L6)
Sequence (Q9Y6L6 whole entry): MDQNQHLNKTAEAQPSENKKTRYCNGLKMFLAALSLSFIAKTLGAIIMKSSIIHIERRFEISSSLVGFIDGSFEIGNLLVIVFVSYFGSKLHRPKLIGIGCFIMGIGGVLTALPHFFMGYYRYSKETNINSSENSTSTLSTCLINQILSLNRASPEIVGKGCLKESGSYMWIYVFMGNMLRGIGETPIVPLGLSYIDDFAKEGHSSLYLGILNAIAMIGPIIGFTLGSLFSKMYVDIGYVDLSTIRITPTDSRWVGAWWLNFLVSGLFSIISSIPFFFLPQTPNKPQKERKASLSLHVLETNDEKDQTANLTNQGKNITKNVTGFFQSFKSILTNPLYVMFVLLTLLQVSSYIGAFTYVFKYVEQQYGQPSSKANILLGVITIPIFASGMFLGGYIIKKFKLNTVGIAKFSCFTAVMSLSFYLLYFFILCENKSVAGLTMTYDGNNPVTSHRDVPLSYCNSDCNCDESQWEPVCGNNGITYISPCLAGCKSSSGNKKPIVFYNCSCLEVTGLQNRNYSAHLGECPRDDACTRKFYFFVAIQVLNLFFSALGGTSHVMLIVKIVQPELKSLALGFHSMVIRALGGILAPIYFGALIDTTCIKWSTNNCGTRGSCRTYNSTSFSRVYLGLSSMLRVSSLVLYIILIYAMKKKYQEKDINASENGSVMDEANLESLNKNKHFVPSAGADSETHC
Test: Transporter mediated cellular uptake, OATP1B1-expressing HEK293
Type: in vitro ADME
Details: HEK293 stably expressing human OATP1B1, 37° C., 0.5 minutes
property label: OATP1B1 Uptake (Percent of no transporter control cell) (%)
Write it as a number; the unit % goes unstated.

Given C[C@]12CC[C@@H]3c4ccc(OS(=O)(=O)O)cc4CC[C@H]3[C@@H]1CCC2=O [Estrone 3-sulphate, reference compound] , respond with its OATP1B1 Uptake (Percent of no transporter control cell).
685

Given `CC(C)n1cnnc1-c1cccc(N2Cc3ccc(-c4cccc(C(C)(C)C(=O)O)c4)cc3C2=O)n1` , respond with its OATP1B1 Uptake (Percent of no transporter control cell).
221

Given `CC(C)n1cnnc1-c1cccc(N2Cc3ccc(-c4cccc(C(=O)O)c4)cc3C2=O)n1` , respond with its OATP1B1 Uptake (Percent of no transporter control cell).
753

Lab note: next molecule to report on.
Given `CC(C)n1cnnc1-c1cccc(N2Cc3ccc(-c4ccc(C(C)(C)C(=O)O)cc4)cc3C2=O)n1` , respond with its OATP1B1 Uptake (Percent of no transporter control cell).
175

###

Molecular target: recombinant human ASK1 protein (Homo sapiens (Human), UniProt Q99683)
Sequence (Q99683 whole entry): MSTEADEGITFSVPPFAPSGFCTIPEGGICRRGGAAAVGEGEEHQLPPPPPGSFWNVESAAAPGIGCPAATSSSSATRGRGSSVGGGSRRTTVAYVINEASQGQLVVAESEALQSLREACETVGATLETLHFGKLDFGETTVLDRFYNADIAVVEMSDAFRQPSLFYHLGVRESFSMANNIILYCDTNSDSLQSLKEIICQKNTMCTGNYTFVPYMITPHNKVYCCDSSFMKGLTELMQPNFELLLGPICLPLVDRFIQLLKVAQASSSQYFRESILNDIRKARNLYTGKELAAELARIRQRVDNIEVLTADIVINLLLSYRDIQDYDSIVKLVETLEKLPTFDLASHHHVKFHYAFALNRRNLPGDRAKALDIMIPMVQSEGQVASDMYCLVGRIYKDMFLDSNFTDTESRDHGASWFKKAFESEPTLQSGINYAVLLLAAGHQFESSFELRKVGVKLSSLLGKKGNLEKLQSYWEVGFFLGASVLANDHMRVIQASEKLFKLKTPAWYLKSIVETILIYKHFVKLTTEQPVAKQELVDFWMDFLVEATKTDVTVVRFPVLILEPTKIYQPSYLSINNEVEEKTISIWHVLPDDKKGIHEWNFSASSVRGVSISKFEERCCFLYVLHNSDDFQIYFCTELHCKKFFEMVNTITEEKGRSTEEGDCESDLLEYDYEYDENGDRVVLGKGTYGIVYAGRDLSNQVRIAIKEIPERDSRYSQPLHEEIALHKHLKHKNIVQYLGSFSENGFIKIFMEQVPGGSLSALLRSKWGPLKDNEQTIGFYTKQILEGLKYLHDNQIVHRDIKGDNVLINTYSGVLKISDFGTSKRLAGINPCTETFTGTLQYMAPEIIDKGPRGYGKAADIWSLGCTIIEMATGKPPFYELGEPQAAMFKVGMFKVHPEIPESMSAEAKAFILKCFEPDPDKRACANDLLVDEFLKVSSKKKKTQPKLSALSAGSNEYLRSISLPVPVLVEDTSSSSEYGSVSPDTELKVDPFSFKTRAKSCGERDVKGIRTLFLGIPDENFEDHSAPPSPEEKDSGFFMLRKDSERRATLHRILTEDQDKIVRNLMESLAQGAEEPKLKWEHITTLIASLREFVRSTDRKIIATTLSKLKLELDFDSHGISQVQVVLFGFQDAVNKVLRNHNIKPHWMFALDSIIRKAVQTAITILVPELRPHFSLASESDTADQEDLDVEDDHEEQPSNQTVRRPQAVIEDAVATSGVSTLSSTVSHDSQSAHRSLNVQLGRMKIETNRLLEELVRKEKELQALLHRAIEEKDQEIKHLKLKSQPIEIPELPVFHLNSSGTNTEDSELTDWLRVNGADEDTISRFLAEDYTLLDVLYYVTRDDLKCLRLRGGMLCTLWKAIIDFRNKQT
Assay: ASK1 kinase activity inhibition assay (radiometric 33P incorporation into MBP)
Assay type: biochemical
Conditions: Table 3; 20 μM MBP, 10 μM 33P-ATP
property label: IC50 (nM)
Write it as a number; the unit nM goes unstated.

Please report IC50 with recombinant human ASK1 protein (Homo sapiens (Human), UniProt Q99683) for item `CC(C)(C(=O)O)c1ccc(-c2ccc3c(c2)C(=O)N(c2cccc(-c4nncn4C4CC4)n2)C3)cc1` .
2.6

Please report IC50 with recombinant human ASK1 protein (Homo sapiens (Human), UniProt Q99683) for item `COC(=O)c1ccc(F)c(-c2ccc3c(c2)C(=O)N(c2cccc(-c4nncn4C4CC4)n2)C3)c1` .
3.28

Please report IC50 with recombinant human ASK1 protein (Homo sapiens (Human), UniProt Q99683) for item `CC(C)n1cnnc1-c1cccc(N2Cc3ccc(-c4cc(C(=O)O)ccc4C#N)cc3C2=O)n1` .
15.6

Please report IC50 with recombinant human ASK1 protein (Homo sapiens (Human), UniProt Q99683) for item `CC(C)n1cnnc1-c1cccc(N2Cc3ccc(-c4ccc5cc(C(=O)O)[nH]c5c4)cc3C2=O)n1` .
5.1

Please report IC50 with recombinant human ASK1 protein (Homo sapiens (Human), UniProt Q99683) for item `CC(C)n1cnnc1-c1cccc(N2Cc3ccc(-c4ccn5ncc(C(=O)O)c5n4)cc3C2=O)n1` .
8.3

Please report IC50 with recombinant human ASK1 protein (Homo sapiens (Human), UniProt Q99683) for item `CC(C)n1cnnc1-c1cccc(N2Cc3ccc(-c4cccc(C(=O)O)c4F)cc3C2=O)n1` .
4.3

Please report IC50 with recombinant human ASK1 protein (Homo sapiens (Human), UniProt Q99683) for item `COC(=O)c1ccc(F)c(-c2ccc3c(c2)C(=O)N(c2cccc(-c4nncn4C(C)C)n2)C3)c1` .
6.57

Please report IC50 with recombinant human ASK1 protein (Homo sapiens (Human), UniProt Q99683) for item `CC(C)n1cnnc1-c1cccc(N2Cc3ccc(-c4cccc(-c5nn[nH]n5)c4)cc3C2=O)n1` .
2.8

Please report IC50 with recombinant human ASK1 protein (Homo sapiens (Human), UniProt Q99683) for item `CC(C)n1cnnc1-c1cccc(N2Cc3ccc(-c4ccc(C5(C(=O)O)CC5)cc4)cc3C2=O)n1` .
1.83

Please report IC50 with recombinant human ASK1 protein (Homo sapiens (Human), UniProt Q99683) for item `CC(C)n1cnnc1-c1cccc(N2Cc3ccc(-c4ccc(C(=O)O)c(Cl)c4)cc3C2=O)n1` .
4.7

Please report IC50 with recombinant human ASK1 protein (Homo sapiens (Human), UniProt Q99683) for item `CC(C)n1cnnc1-c1cccc(N2Cc3ccc(-c4ccc5c(c4)COC5=O)cc3C2=O)n1` .
3.2

###

Items are presented alongside their recorded IC50.
Target: recombinant human ASK1 protein (Homo sapiens (Human))
Assay: ASK1 kinase activity inhibition assay (radiometric 33P incorporation into MBP)
Assay type: biochemical
Settings: Table 3; 20 μM MBP, 10 μM 33P-ATP
Description: ASK1 Kinase Activity Inhibition Assay Inhibition of ASK1 kinase activity was determined radiometrically using 33P substrate incorporation (Reaction Biology Corp., Malvern, Pa.). […] Upon reaction termination, the mixture was spotted on P81 exchange paper and kinase activity by incorporation of 33P into MBP substrate was detected by filter-binding method.
Write it as a number; the unit nM goes unstated.

Given `CC(C)n1cnnc1-c1cccc(N2Cc3ccc(-c4ccc5nc(C(=O)O)sc5c4)cc3C2=O)n1` , respond with its IC50.
4.1

More entries:
Given `Cc1c(C(=O)O)cccc1-c1ccc2c(c1)C(=O)N(c1cccc(-c3nncn3C(C)C)n1)C2` , respond with its IC50.
6.9

Given `CC(C)n1cnnc1-c1cccc(N2Cc3ccc(-c4ccc(C(=O)O)c(F)c4)cc3C2=O)n1` , respond with its IC50.
5.4

Given `COc1cc(C(=O)O)ccc1-c1ccc2c(c1)C(=O)N(c1cccc(-c3nncn3C(C)C)n1)C2` , respond with its IC50.
8.2

###

Molecular target: ASK1 kinase active site (Homo sapiens (Human))
Sequence (Q99683 whole entry): as the sequence (Q99683 whole entry) above
Test: ASK1 kinase active site binding assay (KINOMEscan)
Conditions: 11-point 3-fold dilution series
property label: pKd
Remember the convention: pKd equals -log10 of concentration in molar.

Given `CC(C)n1cnnc1-c1cccc(N2Cc3ccc(-c4cccc(C(=O)O)c4)cc3C2=O)n1` , respond with its pKd.
9.12

Lab note: next molecule to report on.
Given `CC(C)n1cnnc1-c1cccc(N2Cc3ccc(-c4ccc(C(C)(C)C(=O)O)cc4)cc3C2=O)n1` , respond with its pKd.
9.07

###

Items are presented alongside their recorded pIC50.
Target: recombinant human ASK1 protein (Homo sapiens (Human), UniProt Q99683)
Experiment: ASK1 kinase activity inhibition assay (radiometric 33P incorporation into MBP)
Format: biochemical
Details: Table 3; 20 μM MBP, 10 μM 33P-ATP
Remember the convention: pIC50 equals -log10 of concentration in molar.

A selection of reference data follows.
Given CC(C)n1cnnc1-c1cccc(N2Cc3ccc([C@H]4CC[C@@H](C(=O)O)CC4)cc3C2=O)n1 [Compound 127] , respond with its pIC50.
7.84

Given Cc1cc(F)c(C(=O)O)cc1-c1ccc2c(c1)C(=O)N(c1cccc(-c3nncn3C(C)C)n1)C2 [Compound 79] , respond with its pIC50.
8.34

Given O=C(O)c1ccc(F)c(-c2ccc3c(c2)C(=O)N(c2cccc(-c4nncn4C4CC4)n2)C3)c1 [Compound 93] , respond with its pIC50.
7.91

Given Cc1ccc(C(=O)O)cc1-c1ccc2c(c1)C(=O)N(c1cccc(-c3nncn3C(C)C)n1)C2 [Compound 11] , respond with its pIC50.
8.23

More entries:
Given Cc1cc(C(=O)O)c(C#N)c(-c2ccc3c(c2)C(=O)N(c2cccc(-c4nncn4C(C)C)n2)C3)n1 [Compound 118] , respond with its pIC50.
7.17

Given CC(C)n1cnnc1-c1cccc(N2Cc3ccc([C@H]4CC[C@H](C(=O)O)CC4)cc3C2=O)n1 [Compound 126] , respond with its pIC50.
7.87

Given CC(C)n1cnnc1-c1cccc(N2Cc3ccc(-c4ccc(-c5nnn[nH]5)cc4)cc3C2=O)n1 [Compound 91] , respond with its pIC50.
8.10

Given CCc1sc(C(=O)O)cc1-c1ccc2c(c1)C(=O)N(c1cccc(-c3nncn3C(C)C)n1)C2 [Compound 62] , respond with its pIC50.
8.17

Given COc1ncc(-c2ccc3c(c2)C(=O)N(c2cccc(-c4nncn4C(C)C)n2)C3)cc1C(=O)O [Compound 116] , respond with its pIC50.
8.34

Given CC(C)n1cnnc1-c1cccc(N2Cc3ccc(-c4ccc5ncc(C(=O)O)n5c4)cc3C2=O)n1 [Compound 123] , respond with its pIC50.
8.46

###

Target: recombinant human ASK1 protein (Homo sapiens (Human), UniProt Q99683)
Assay: ASK1 kinase activity inhibition assay (radiometric 33P incorporation into MBP)
Assay type: biochemical
Conditions: Table 3; 20 μM MBP, 10 μM 33P-ATP
Note to self: use MET only for IC50 readings below 4 nM; a reading exactly at 4 nM still gets NOT MET.

Some solved cases for reference:
Quick check: IC50 of `O=C1c2cc(-c3cccc(C4(C(=O)O)CC4)c3)ccc2CN1c1cccc(-c2nncn2C2CC2)n1` under 4 nM?
NOT MET

Quick check: IC50 of `CC(C)n1cnnc1-c1cccc(N2Cc3ccc(-c4cccc(C(C)(C)C(=O)O)c4)cc3C2=O)n1` under 4 nM?
MET

Quick check: IC50 of `CC(C)n1cnnc1-c1cccc(N2Cc3ccc(-c4cc(C#N)cc(C(=O)O)c4)cc3C2=O)n1` under 4 nM?
MET

Quick check: IC50 of `CC(C)n1cnnc1-c1cccc(N2Cc3ccc(-c4cc(C(=O)O)ccc4F)cc3C2=O)n1` under 4 nM?
MET

Quick check: IC50 of `Cc1cc(C(=O)O)cc(-c2ccc3c(c2)C(=O)N(c2cccc(-c4nncn4C(C)C)n2)C3)n1` under 4 nM?
NOT MET

# input for lookup
Quick check: IC50 of `CC(C)n1cnnc1-c1cccc(N2Cc3ccc(-c4cnc(N)c(C(=O)O)c4)cc3C2=O)n1` under 4 nM?
MET
